These entries and their values trace back to the RNAGym collection of RNA variant scans (doi:10.1073/pnas.2313332121).

B1: TPR 5TU (parent)
chain: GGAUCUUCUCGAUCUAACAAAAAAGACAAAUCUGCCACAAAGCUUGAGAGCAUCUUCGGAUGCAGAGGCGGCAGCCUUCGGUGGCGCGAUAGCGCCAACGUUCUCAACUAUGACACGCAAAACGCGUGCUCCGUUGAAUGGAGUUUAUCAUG

Variants of: B1
measurement.protocol: polymerase ribozyme fitness, log enrichment relative to wild type (log ratio); higher = more active; in vitro selection for triplet polymerase activity
Variants at the floor of the assay were thinned out.
observable: polymerase ribozyme fitness (log ratio)

* C85U G126U U139A U144C | -3.59
* C76U G84U G143A | -2.57
* U15G C93U | -2.61
* C116U | 0.103
* C35G A60C | -3.99
* A17U C93U | -1.07
* U13G C103A | -2.97
* A17G G58A G59C C69U C95U U104A | -3.74
* G140U U146C | -3.33
* C95U G141A | 0.432
* U45A C93U A147U | -2.81
* A16U C116A | -0.257
* A49G G126U | -0.157
* A37U G92C G133C | -3.52
* G58U U82A G84U U146G | -2.04
* U55A C116G | 0.374
* C35U U127G | -4.01
